Tested on: HepG2, L540cy, Ramos, U266, HL60, HL60/RV cell lines
assay-name: In vitro assays - TubOEt analogues, statements across the cell line panel
Format: cell-based
setup-conditions: Table 3 cell lines, 96 hour exposure
measured-parameter: potency / cytotoxicity of TubOEt analogues, in words

compound | measurement
CCO[C@H](C[C@H](C(C)C)N(C)C(=O)[C@@H](NC(=O)[C@H]1CCCCN1C)C1CCCC1)c1nc(C(=O)N[C@@H](Cc2ccccc2)C[C@H](C)C(=O)O)cs1 [Compound 204] | potent
CCO[C@H](C[C@H](C(C)C)N(C)C(=O)[C@@H](NC(=O)[C@H]1CCCCN1C)C1CCCCC1)c1nc(C(=O)N[C@@H](Cc2ccccc2)C[C@H](C)C(=O)O)cs1 [Compound 205] | potent

----------
Tested on: HL60, AML
assay-name: In vitro assays - tubulysin free drugs, CellTiter-Glo growth inhibition
Type: cell-based
setup-conditions: Table 1 (examples); free drug, 96 hours
measured-parameter: IC50 (nM)
Entry rule: numbers only, all in nM.

QUERY: Return reported IC50; argument: CCCO[C@H](C[C@H](C(C)C)N(C)C(=O)[C@@H](NC(=O)[C@H]1CCCCN1C)[C@@H](C)CC)c1nc(C(=O)N[C@@H](Cc2ccccc2)C[C@H](C)C(=O)O)cs1 [Compound 42]
RESULT: 0.17

----------
IC50, Hep3B CD30- HCC listing for selected compounds.
Tested on: antigen-negative Hep3B hepatocellular carcinoma cells
setup-conditions: Table 5, cAC10 ADCs 8 drugs/mAb, MDPR-Linker-TubM

compound | IC50, Hep3B CD30- HCC
CC[C@H](C)[C@H](NC(=O)[C@H]1CCCC[N+]1(C)Cc1ccc(O[C@@H]2O[C@H](C(=O)O)[C@@H](O)[C@H](O)[C@H]2O)c(NC(=O)CCNC(=O)[C@H](CN)N2C(=O)C=CC2=O)c1)C(=O)N(C)[C@H](C[C@@H](OC(C)=O)c1nc(C(=O)N[C@@H](Cc2ccccc2)C[C@H](C)C(=O)O)cs1)C(C)C (stereo partly shown) | >1 µg/mL
CC[C@H](C)[C@H](NC(=O)[C@H]1CCCC[N+]1(C)Cc1ccc(NC(=O)[C@H](CCC(=O)O)NC(=O)[C@@H](NC(=O)[C@H](CCCCNC(=O)CCOCCOCCOCCOCCOCCOCCOCCOCCOCCOCCOCCOC)NC(=O)[C@H](CN)N2C(=O)C=CC2=O)C(C)C)cc1)C(=O)N(C)[C@H](C[C@@H](OC(C)=O)c1nc(C(=O)N[C@@H](Cc2ccccc2)C[C@H](C)C(=O)O)cs1)C(C)C (stereo partly shown) | >1 µg/mL
CC[C@H](C)[C@H](NC(=O)[C@H]1CCCC[N+]1(C)Cc1ccc(NC(=O)[C@H](C)NC(=O)[C@@H](NC(=O)[C@H](CN)N2C(=O)C=CC2=O)C(C)C)cc1)C(=O)N(C)[C@H](C[C@@H](OC(C)=O)c1nc(C(=O)N[C@@H](Cc2ccccc2)C[C@H](C)C(=O)O)cs1)C(C)C (stereo partly shown) | >1 µg/mL

// next entry
QUERY: antigen-negative Hep3B hepatocellular carcinoma cells / IC50, Hep3B CD30- HCC / CC[C@H](C)[C@H](NC(=O)[C@H]1CCCC[N+]1(C)Cc1ccc(NC(=O)[C@H](CCC(=O)O)NC(=O)[C@@H](NC(=O)[C@H](CN)N2C(=O)C=CC2=O)C(C)C)cc1)C(=O)N(C)[C@H](C[C@@H](OC(C)=O)c1nc(C(=O)N[C@@H](Cc2ccccc2)C[C@H](C)C(=O)O)cs1)C(C)C (stereo partly shown) : value?
RESULT: >1 µg/mL

----------
System: DEL/BVR, MDR + ALCL
setup-conditions: Table 5; cAC10 ADCs 8 drugs/mAb, MDPR-Linker-TubM
Protocol: In vitro assays. Cells cultured in log-phase growth were seeded for 24 h in 96-well plates containing 150 μL RPMI 1640 supplemented with 20% FBS. […] After 96 h, growth inhibition was assessed by CellTiter-Glo® (Promega, Madison, WI) and luminescence was measured on a plate reader. […] Several hydrophilic linker constructs incorporating quaternized tubulysin M were prepared and evaluated in vitro; the results are shown in Table 5. […]
measured-parameter: IC50, DEL/BVR, MDR + ALCL (ng/mL)
Entry rule: numbers only, all in ng/mL.

compound | unit-info | measurement
CC[C@H](C)[C@H](NC(=O)[C@H]1CCCC[N+]1(C)Cc1ccc(NC(=O)[C@H](CCC(=O)O)NC(=O)[C@@H](NC(=O)[C@H](CCCCNC(=O)CCOCCOCCOCCOCCOCCOCCOCCOCCOCCOCCOCCOC)NC(=O)[C@H](CN)N2C(=O)C=CC2=O)C(C)C)cc1)C(=O)N(C)[C@H](C[C@@H](OC(C)=O)c1nc(C(=O)N[C@@H](Cc2ccccc2)C[C@H](C)C(=O)O)cs1)C(C)C (stereo partly shown) | ng/mL | 2
CC[C@H](C)[C@H](NC(=O)[C@H]1CCCC[N+]1(C)Cc1ccc(NC(=O)[C@H](CCC(=O)O)NC(=O)[C@@H](NC(=O)[C@H](CN)N2C(=O)C=CC2=O)C(C)C)cc1)C(=O)N(C)[C@H](C[C@@H](OC(C)=O)c1nc(C(=O)N[C@@H](Cc2ccccc2)C[C@H](C)C(=O)O)cs1)C(C)C (stereo partly shown) | ng/mL | 2
CC[C@H](C)[C@H](NC(=O)[C@H]1CCCC[N+]1(C)Cc1ccc(NC(=O)[C@H](C)NC(=O)[C@@H](NC(=O)[C@H](CN)N2C(=O)C=CC2=O)C(C)C)cc1)C(=O)N(C)[C@H](C[C@@H](OC(C)=O)c1nc(C(=O)N[C@@H](Cc2ccccc2)C[C@H](C)C(=O)O)cs1)C(C)C (stereo partly shown) | ng/mL | 4

// next entry
QUERY: Return reported IC50, DEL/BVR, MDR + ALCL; argument: CC[C@H](C)[C@H](NC(=O)[C@H]1CCCC[N+]1(C)Cc1ccc(O[C@@H]2O[C@H](C(=O)O)[C@@H](O)[C@H](O)[C@H]2O)c(NC(=O)CCNC(=O)[C@H](CN)N2C(=O)C=CC2=O)c1)C(=O)N(C)[C@H](C[C@@H](OC(C)=O)c1nc(C(=O)N[C@@H](Cc2ccccc2)C[C@H](C)C(=O)O)cs1)C(C)C (stereo partly shown)
RESULT: 4

----------
System: HepG2, HCC
assay-name: In vitro assays - TubOEt analogues, CellTiter-Glo growth inhibition
Assay type: cell-based
setup-conditions: Homo sapiens, Table 3, lantern-made analogues >85% purity, 96 hour exposure
pIC50 listing for selected compounds.
Expect pIC50 as a plain number equal to -log10 of the molar concentration.

compound | measured-parameter | measurement
CCO[C@H](C[C@H](C(C)C)N(C)C(=O)[C@@H](NC(=O)[C@H]1CCCCN1C)C1CCCC1)c1nc(C(=O)N[C@@H](Cc2ccccc2)C[C@H](C)C(=O)O)cs1 | pIC50 | 8.70
CCO[C@H](C[C@H](C(C)C)N(C)C(=O)[C@@H](NC(=O)[C@H]1CCCCN1C)[C@H](C)OC(C)(C)C)c1nc(C(=O)N[C@@H](Cc2ccccc2)C[C@H](C)C(=O)O)cs1 | pIC50 | 7.04
CCO[C@H](C[C@H](C(C)C)N(C)C(=O)[C@H](CC1CCCCC1)NC(=O)[C@H]1CCCCN1C)c1nc(C(=O)N[C@@H](Cc2ccccc2)C[C@H](C)C(=O)O)cs1 | pIC50 | 7.15
CCO[C@H](C[C@H](C(C)C)N(C)C(=O)[C@@H](NC(=O)C1CCC(F)(F)CN1C)[C@@H](C)CC)c1nc(C(=O)N[C@@H](Cc2ccccc2)C[C@H](C)C(=O)O)cs1 (stereo partly shown) | pIC50 | 7.24
CCO[C@H](C[C@H](C(C)C)N(C)C(=O)[C@@H](NC(=O)[C@H]1CCCCN1C)C1CCCCC1)c1nc(C(=O)N[C@@H](Cc2ccccc2)C[C@H](C)C(=O)O)cs1 | pIC50 | 8.15

QUERY: Return reported pIC50; argument: `CCO[C@H](C[C@H](C(C)C)N(C)C(=O)[C@@H](NC(=O)[C@H]1CCCCN1C)C1Cc2ccccc2C1)c1nc(C(=O)N[C@@H](Cc2ccccc2)C[C@H](C)C(=O)O)cs1`
RESULT: 6.60

QUERY: Return reported pIC50; argument: `CCO[C@H](C[C@H](C(C)C)N(C)C(=O)[C@@H](NC(=O)[C@H]1CCCCN1C)[C@H](C)CC)c1nc(C(=O)N[C@@H](Cc2ccccc2)C[C@H](C)C(=O)O)cs1`
RESULT: 7.30

QUERY: Return reported pIC50; argument: `CCO[C@H](C[C@H](C(C)C)N(C)C(=O)[C@@H](NC(=O)[C@H]1[C@H]2CC[C@H](CC2)N1C)[C@@H](C)CC)c1nc(C(=O)N[C@@H](Cc2ccccc2)C[C@H](C)C(=O)O)cs1`
RESULT: 8.05

QUERY: Return reported pIC50; argument: `CCO[C@H](C[C@H](C(C)C)N(C)C(=O)[C@@H](NC(=O)[C@H]1CCCCN1C)[C@@H](C)OC(C)(C)C)c1nc(C(=O)N[C@@H](Cc2ccccc2)C[C@H](C)C(=O)O)cs1`
RESULT: 9.00
